The values you see were collected from ChEMBL document CHEMBL3826878.

testSystem: UniProtKB P25779
Sequence (P25779 123-467 limits assumed): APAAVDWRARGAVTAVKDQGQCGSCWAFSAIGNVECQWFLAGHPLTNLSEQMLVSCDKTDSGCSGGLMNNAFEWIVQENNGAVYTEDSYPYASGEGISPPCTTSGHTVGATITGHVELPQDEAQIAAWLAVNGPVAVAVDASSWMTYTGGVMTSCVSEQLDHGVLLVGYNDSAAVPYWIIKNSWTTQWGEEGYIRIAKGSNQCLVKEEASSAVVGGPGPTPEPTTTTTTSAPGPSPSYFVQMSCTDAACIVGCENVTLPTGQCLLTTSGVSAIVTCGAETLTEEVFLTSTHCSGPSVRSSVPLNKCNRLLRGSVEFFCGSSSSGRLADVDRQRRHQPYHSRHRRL
experimentalDetails: Inhibition of Trypanosoma cruzi cruzain at 100 uM pre-incubated for 10 mins followed by addition of Z-Phe-Arg-aminomethylcoumarin as substrate measured after 5 mins by spectrofluorimetry
# inhibition per entry

molecule: C=CCn1c(-c2ccccc2)cs/c1=N\c1sc2c(c1C(=O)OCC)CCCC2
unitDescriptor: %
inhibition: 97
--
molecule: CC(C)OC(=O)c1c(/N=C2\SC(CC(=O)O)C(=O)N2c2ccccc2)sc2c1CCCC2 (centres undefined)
unitDescriptor: %
inhibition: 77
--
molecule: C=CCNC(=S)Nc1sc2c(c1C(=O)OC(C)C)CCCC2
unitDescriptor: %
inhibition: 34
--
molecule: CCOC(=O)c1c(/N=C2\SC(C(=O)OCC)C(=O)N2c2ccccc2)sc2c1CCCC2 (centres undefined)
unitDescriptor: %
inhibition: 66

====

testSystem: UniProt P25779
experimentalDetails: Inhibition of Trypanosoma cruzi cruzain at 100 uM using Z-Phe-Arg-aminomethylcoumarin as substrate measured after 5 mins by spectrofluorimetry

compound: C=CCN1C(=O)C(C(=O)OCC)S/C1=N\c1sc2c(c1C(=O)OCC)CCCC2 (stereo not drawn)
inhibition, %: 18
//
compound: CC(C)OC(=O)c1c(/N=C2\SC(CC(=O)O)C(=O)N2c2ccccc2)sc2c1CCCC2 (stereo not drawn)
inhibition, %: 32
//
compound: CCOC(=O)c1c(/N=C2\SCC(=O)N2c2ccccc2)sc2c1CCCC2
inhibition, %: 0
